Experiment: PK Studies in the Rat
Format: in vivo
Conditions: oral 20 mg/Kg
Below: a set of entries, each annotated with reported % dose in urine.
API: value field is a number in % dose; no unit string.

# count of solved cases: 3
compoundSmiles	unitString	numericReadout
CCN(CC)Cc1nc2c(O)c(Cl)cc(Cl)c2c(=O)n1CC1CC1	% dose	0.05
CN(C)Cc1nc2c(O)c(Cl)cc(Cl)c2c(=O)n1C	% dose	0.1
Br.CCNCc1nc2c(O)c(Cl)cc(Cl)c2c(=O)n1C	% dose	0.19

API: the following record is the query input.
Look at this molecule and give its reported % dose in urine. CCNCc1nc2c(O)c(Cl)cc(Cl)c2c(=O)n1CC 0.18

---

Assay: PK Studies in the Rat
Format: in vivo
Conditions: plasma, oral 20 mg/Kg
Below: a set of entries, each annotated with reported Cmax.
API: value field is a number in µM; no unit string.

# count of solved cases: 3
compoundSmiles	unitString	numericReadout
CN(C)Cc1nc2c(O)c(Cl)cc(Cl)c2c(=O)n1C	µM	3.3
Br.CCNCc1nc2c(O)c(Cl)cc(Cl)c2c(=O)n1C	µM	7.61
CCNCc1nc2c(O)c(Cl)cc(Cl)c2c(=O)n1CC	µM	56.7

API: the following record is the query input.
Look at this compound and give its reported Cmax. CCN(CC)Cc1nc2c(O)c(Cl)cc(Cl)c2c(=O)n1CC1CC1 7.3

---

Experiment: Equilibrium Solubility (pH 2-7)
Format: physicochemical
measure: pH dependence of equilibrium solubility

# count of solved cases: 4
compoundSmiles	pH dependence of equilibrium solubility
CCN(CC)Cc1nc2c(O)c(Cl)cc(Cl)c2c(=O)n1CC1CC1	pH dependent
CN(C)Cc1nc2c(O)c(Cl)cc(Cl)c2c(=O)n1CC1CC1	pH dependent
CNCc1nc2c(O)c(Cl)cc(Cl)c2c(=O)n1C	pH dependent
CCn1c(CN(C)C)nc2c(O)c(Cl)cc(Cl)c2c1=O.Cl	not pH dependent

Look at this compound and give its reported pH dependence of equilibrium solubility. CCNCc1nc2c(O)c(Cl)cc(Cl)c2c(=O)n1CC not pH dependent

Look at this compound and give its reported pH dependence of equilibrium solubility. CN(C)Cc1nc2c(O)c(Cl)cc(Cl)c2c(=O)n1C pH dependent

Look at this compound and give its reported pH dependence of equilibrium solubility. Br.CCNCc1nc2c(O)c(Cl)cc(Cl)c2c(=O)n1C not pH dependent

---

Biological target: CYP3A4 (Homo sapiens, UniProt P08684)
Sequence (P08684 whole entry, canonical isoform): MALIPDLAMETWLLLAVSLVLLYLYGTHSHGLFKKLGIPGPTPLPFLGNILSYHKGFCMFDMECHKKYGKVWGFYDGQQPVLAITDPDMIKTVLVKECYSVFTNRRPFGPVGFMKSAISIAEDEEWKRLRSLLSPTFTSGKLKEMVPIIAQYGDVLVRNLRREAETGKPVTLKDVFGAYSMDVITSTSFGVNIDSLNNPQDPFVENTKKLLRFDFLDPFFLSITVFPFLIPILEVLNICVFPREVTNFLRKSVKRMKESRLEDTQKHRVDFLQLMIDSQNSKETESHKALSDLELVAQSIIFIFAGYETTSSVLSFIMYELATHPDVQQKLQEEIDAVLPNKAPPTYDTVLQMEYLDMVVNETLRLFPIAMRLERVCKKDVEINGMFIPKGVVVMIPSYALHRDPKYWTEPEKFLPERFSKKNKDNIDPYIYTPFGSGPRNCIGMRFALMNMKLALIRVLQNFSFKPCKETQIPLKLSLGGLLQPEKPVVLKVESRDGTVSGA
Assay: CYP450 isoform inhibition, recombinant enzymes, analysis by LCMS: CYP3A4
Type: in vitro ADME
Parameters: purchased
Description: CYP450 Isoform Inhibition Microsomes containing individual recombinant human CYP450 enzymes (Supersomes™) were incubated in the presence of a fixed concentration of a probe substrate that forms a fluorescent metabolite upon CYP450-mediated metabolism. […] The inherent fluorescence of the test compound was examined under the specific assay conditions for each isoform before and after the fluorometric assay to identify any compound-specific interference due to the parent compound or metabolic products. […]
measure: pIC50
The value called pIC50 is obtained by taking minus log10 of the concentration in mol/L.

Report pIC50 for CNCc1nc2c(O)c(Cl)cc(Cl)c2c(=O)n1C tested on CYP3A4 (Homo sapiens, UniProt P08684). 4.86

// data source = patent US9145375B2
